tested on: KB cells; experiment: Cytotoxicity against KB cells (crystal violet dying method); format: cell-based; settings: Homo sapiens; KB cells, 72 hours, 50% proliferation inhibition; read-out: Cytotoxicity [IC50 (μM)]
Structures can show the parent of a compound that is named as a salt.
MEASURED QUANTITY: IC50 (µM)
Just the number please, in µM, no unit attached.

INPUT: For O=C(NCCNCCNC(=O)c1ccnc2ccccc12)c1cc(C(=O)NCCNCCN2C(=O)c3cccc4cc([N+](=O)[O-])cc(c34)C2=O)cc(N2C(=O)c3cccc4cc([N+](=O)[O-])cc(c34)C2=O)c1 [Example 14, trihydrochloride] , what is its reported IC50?
OUTPUT: 1.3

INPUT: Would you kindly share the measured IC50 for O=C(NCCNCCN1C(=O)c2cc3ccccc3cc2C1=O)c1cc(C(=O)NCCNCCN2C(=O)c3cccc4cc([N+](=O)[O-])cc(c34)C2=O)cc(N2C(=O)c3cccc4cc([N+](=O)[O-])cc(c34)C2=O)c1 [Example 17, dihydrochloride] ?
OUTPUT: 0.28

###

test system: KB cells; assay: Cytotoxicity against KB cells (crystal violet dying method); assay type: cell-based; conditions: Homo sapiens; KB cells, 72 hours, 50% proliferation inhibition; read-out: Cytotoxicity [IC50 (μM)]
Structures can show the parent of a compound that is named as a salt.
Kindly state IC50 for each of the entries shown.
The reply should contain only the number, in µM.

INPUT: Recorded IC50 of O=C(NCCNCCCN1C(=O)c2cccc3cc([N+](=O)[O-])cc(c23)C1=O)c1cccc(N2C(=O)c3cccc4cc([N+](=O)[O-])cc(c34)C2=O)c1 [Example 40 (A), hydrochloride] , please.
OUTPUT: 0.003

INPUT: # lookup: IC50 of O=C(NCCNCCN1C(=O)c2cccc3cc([N+](=O)[O-])cc(c23)C1=O)c1cc(C(=O)N2CCOCC2)cc(N2C(=O)c3cccc4cc([N+](=O)[O-])cc(c34)C2=O)c1 [Example 48, hydrochloride]
OUTPUT: 0.052

INPUT: I would be grateful if you could share the reported IC50 for CCN1CCN(C(=O)c2cc(C(=O)NCCNCCN3C(=O)c4cccc5cccc(c45)C3=O)cc(N3C(=O)c4cccc5cc([N+](=O)[O-])cc(c45)C3=O)c2)CC1 [Example 53, hydrochloride] .
OUTPUT: 0.013

INPUT: Dear colleague, I am looking for the recorded IC50 of the following compound: CN1CCN(C(=O)c2cc(C(=O)NCCNCCCN3C(=O)c4cccc5cc([N+](=O)[O-])cc(c45)C3=O)cc(N3C(=O)c4cccc5cc([N+](=O)[O-])cc(c45)C3=O)c2)CC1 [Example 56 (B), hydrochloride]
OUTPUT: 0.12

INPUT: Endpoint output: IC50 of `O=C(NCCNCCN1C(=O)c2cccc3cccc(c23)C1=O)c1cc(C(=O)NCCNCCN2C(=O)c3cccc4cccc(c34)C2=O)cc(N2C(=O)c3cccc4cccc(c34)C2=O)c1` . Value?
OUTPUT: 0.059

###

System: KB cells
Assay: Cytotoxicity against KB cells (crystal violet dying method)
Type: cell-based
Settings: Homo sapiens; KB cells, 72 hours, 50% proliferation inhibition; read-out: Cytotoxicity [IC50 (μM)]
Description: Test 1 Cytotoxicity against KB cells The residue was re-suspended in an MEM medium containing 10% fetal bovine serum. Then, an equivalent amount of a 0.2% trypan blue solution was added to a portion of the cell suspension, followed by mixing. The number of living cells which had not been dyed with the trypan blue was counted by a hemocytometer and the suspension was diluted and adjusted with the above-described culture medium to give a cell concentration of 1×10^4 cells/ml. […]
Counter-ions that a name gives are not always drawn.
MEASURED QUANTITY: IC50 (µM)
Record the value in µM, omitting the unit from your answer.

INPUT: Please report the recorded IC50 for CN(C)CCCNC(=O)c1cc(NC(=O)CCNC(=O)c2cc(C(=O)NCCNCCN3C(=O)c4cccc5cc([N+](=O)[O-])cc(c45)C3=O)cc(N3C(=O)c4cccc5cc([N+](=O)[O-])cc(c45)C3=O)c2)cn1C [Example 33, dihydrochloride] .
OUTPUT: 7.1

INPUT: Which IC50 is reported for this molecule? O=C(NCCNCCN1C(=O)c2cccc3cc([N+](=O)[O-])cc(c23)C1=O)c1cc(C(=O)NCCN2CCCC2)cc(N2C(=O)c3cccc4cc([N+](=O)[O-])cc(c34)C2=O)c1 [Example 45, hydrochloride]
OUTPUT: 0.066

INPUT: Could you tell me which IC50 is on file for O=C(NCCCNCCCN1C(=O)c2cccc3cc([N+](=O)[O-])cc(c23)C1=O)c1cc(C(=O)NCCCNCCCN2C(=O)c3cccc4cc([N+](=O)[O-])cc(c34)C2=O)cc(N2C(=O)c3cccc4cc([N+](=O)[O-])cc(c34)C2=O)c1 [Example 11, dihydrochloride] ?
OUTPUT: 0.14

INPUT: Data request, read-out IC50, for CN(C)CCCNC(=O)c1cc(C(=O)NCCNCCN2C(=O)c3cccc4cc([N+](=O)[O-])cc(c34)C2=O)cc(N2C(=O)c3cccc4cc([N+](=O)[O-])cc(c34)C2=O)c1 [Example 41, hydrochloride]
OUTPUT: 3.1

INPUT: Any idea what its IC50 is? The molecule is O=C(NCCNCCN1C(=O)c2cc3ccccc3cc2C1=O)c1cc(C(=O)NCCNCCN2C(=O)c3cc4ccccc4cc3C2=O)cc(N2C(=O)c3cccc4cc([N+](=O)[O-])cc(c34)C2=O)c1 [Example 7, dihydrochloride]
OUTPUT: 4.1

INPUT: So what does the record say about IC50 for `O=C(NCCNCCN1C(=O)c2cccc3cc([N+](=O)[O-])cc(c23)C1=O)c1cc(C(=O)NCCNCCN2C(=O)c3cccc4cc([N+](=O)[O-])cc(c34)C2=O)cc(N2C(=O)c3cccc4cccc(c34)C2=O)c1` ?
OUTPUT: 0.0061

INPUT: // lookup IC50 for O=C(NCCNCCN1C(=O)c2cccc3cc([N+](=O)[O-])cc(c23)C1=O)c1cc(C(=O)N2CCC(N3CCCCC3)CC2)cc(N2C(=O)c3cccc4cc([N+](=O)[O-])cc(c34)C2=O)c1 [Example 55, hydrochloride]
OUTPUT: 0.11

INPUT: What measured IC50 goes with O=C(NCCNCCN1C(=O)c2cccc3cc([N+](=O)[O-])cc(c23)C1=O)c1cccc(N2C(=O)c3cccc4cc([N+](=O)[O-])cc(c34)C2=O)c1 [Example 39, hydrochloride] ?
OUTPUT: 0.0053

INPUT: Quick one: IC50 for CN(C)CCNC(=O)c1cc(C(=O)NCCNCCN2C(=O)c3cccc4cc([N+](=O)[O-])cc(c34)C2=O)cc(N2C(=O)c3cccc4cc([N+](=O)[O-])cc(c34)C2=O)c1 [Example 42, hydrochloride] ?
OUTPUT: 0.15

INPUT: Record request: IC50 value, item O=C(NCCNCCNC(=O)c1cnc2ccccc2c1)c1cc(C(=O)NCCNCCN2C(=O)c3cccc4cc([N+](=O)[O-])cc(c34)C2=O)cc(N2C(=O)c3cccc4cc([N+](=O)[O-])cc(c34)C2=O)c1 [Example 13, trihydrochloride]
OUTPUT: 1.6

INPUT: So what does the record say about IC50 for CN1CCN(C(=O)c2cc(C(=O)NCCNCCN3C(=O)c4cccc5cccc(c45)C3=O)cc(N3C(=O)c4cccc5cccc(c45)C3=O)c2)CC1 [Example 51, hydrochloride] ?
OUTPUT: 0.025

INPUT: Need IC50, item O=C(NCCCNCCN1C(=O)c2cccc3cc([N+](=O)[O-])cc(c23)C1=O)c1cccc(N2C(=O)c3cccc4cc([N+](=O)[O-])cc(c34)C2=O)c1 [Example 40 (B), hydrochloride]
OUTPUT: 0.00023

INPUT: Would you mind telling me what IC50 value was observed for `O=C(NCCNCCn1c2ccccc2c2ccncc21)c1cc(C(=O)NCCNCCn2c3ccccc3c3ccncc32)cc(N2C(=O)c3cccc4cc([N+](=O)[O-])cc(c34)C2=O)c1` ?
OUTPUT: 2.6

INPUT: So what's the measured IC50 for this one? CN(C)CCCNC(=O)c1cc(NC(=O)CCCNC(=O)c2cc(C(=O)NCCNCCN3C(=O)c4cccc5cc([N+](=O)[O-])cc(c45)C3=O)cc(N3C(=O)c4cccc5cc([N+](=O)[O-])cc(c45)C3=O)c2)cn1C [Example 34, dihydrochloride]
OUTPUT: 4.7

INPUT: Which value of IC50 has been reported for O=C(NCCNCCN1C(=O)c2cccc3c(Cl)ccc(c23)C1=O)c1cc(C(=O)NCCNCCN2C(=O)c3cccc4c(Cl)ccc(c34)C2=O)cc(N2C(=O)c3cccc4cc([N+](=O)[O-])cc(c34)C2=O)c1 [Example 8, dihydrochloride] in the records?
OUTPUT: 0.05

INPUT: I would be grateful if you could share the reported IC50 for `O=C(NCCNCCN1C(=O)c2cccc3cccc(c23)C1=O)c1cc(C(=O)NCCNCCN2C(=O)c3cccc4cccc(c34)C2=O)cc(N2C(=O)c3cccc4cc([N+](=O)[O-])cc(c34)C2=O)c1` .
OUTPUT: 0.064

INPUT: Fill blank: measured IC50 of the molecule CN1CCN(C(=O)c2cc(C(=O)NCCCNCCN3C(=O)c4cccc5cc([N+](=O)[O-])cc(c45)C3=O)cc(N3C(=O)c4cccc5cc([N+](=O)[O-])cc(c45)C3=O)c2)CC1 [Example 56 (A), hydrochloride] is ____.
OUTPUT: 0.039
